test system: HEK-293T; assay: Multiplex assay against HEK293T; assay type: toxicity, cell-based; conditions: human, 48 h, 1 µM, compound concentration 1 uM, replicate 1
Reported Population Membrane Permeable-Phenotype (%) values are given for each entry in this list.
All answers are understood in %, so give the number only.

Completed entries (count: 6):
INSERT INTO results (compound, assayed_target, recorded_number) VALUES
  ('C[C@@H]1CC(=O)Nc2cccc(-c3ccc4c(c3)c(-c3cnn(C)c3)nn4C)c2N1', 'HEK-293T', 0),
  ('Cn1cc(C(=O)OCC2CCN(CCNS(C)(=O)=O)CC2)c2ccccc21', 'HEK-293T', 1),
  ('O=C(NCCNCC(O)COc1ccc(O)cc1)N1CCOCC1.O=C(NCCNCC(O)COc1ccc(O)cc1)N1CCOCC1.O=C(O)/C=C/C(=O)O (stereo unspecified) [XAMOTEROL FUMARATE]', 'HEK-293T', 2),
  ('CN1CCN2c3ccccc3Cc3ccccc3C2C1.Cl (stereo unspecified) [MIANSERIN HYDROCHLORIDE]', 'HEK-293T', 1),
  ('COc1cc2nc(N3CCN(C(=O)c4ccco4)CC3)nc(N)c2cc1OC.Cl [PRAZOSIN HYDROCHLORIDE]', 'HEK-293T', 1),
  ('CN(C)C/C=C/C(=O)Nc1ccc(C(=O)N2CCCC(Nc3ncc(Cl)c(-c4c[nH]c5ccccc45)n3)C2)cc1 (stereo unspecified)', 'HEK-293T', 0);

Consider C=CCN1C[C@H](C(=O)N(CCCN(C)C)C(=O)NCC)C[C@@H]2c3cccc4[nH]cc(c34)C[C@H]21 [CABERGOLINE] . Its measured Population Membrane Permeable-Phenotype (%) is 1

So for `S=C(NCCCc1c[nH]cn1)NCCCN(Cc1ccc(Cl)c(Cl)c1)c1ccc(Br)cn1` , the logged Population Membrane Permeable-Phenotype (%) turned out to be 3

// Population Membrane Permeable-Phenotype (%) value for CCC(=O)OCC(=O)[C@@]1(OC(=O)CC)[C@@H](C)C[C@H]2[C@@H]3CCC4=CC(=O)C=C[C@]4(C)[C@@]3(Cl)[C@@H](O)C[C@@]21C [BECLOMETHASONE DIPROPIONATE] : 0

The recorded Population Membrane Permeable-Phenotype (%) for Cc1cc(-c2ccc3c(c2)CC[C@H]3N2CC3(CCN(C(=O)Cc4cn5cc(C)sc5n4)CC3)C2)ncn1 [PF-5190457] is 1

Query COc1ccc2[nH]c(I)c(CCNC(C)=O)c2c1 [IODOMELATONIN] yields Population Membrane Permeable-Phenotype (%) of 1

Input `COc1cc(OC2CCN(C(C)=O)CC2)ccc1C(=O)N1CCC(N2C(=O)OCc3ccccc32)CC1` . Output Population Membrane Permeable-Phenotype (%): 1

Kindly note the recorded Population Membrane Permeable-Phenotype (%) for `COc1cc2nc(N3CCN(C(=O)COc4c(OC)cccc4C(C)C)CC3)nc(N)c2cc1OC.Cl.Cl` , which is 1
